- System: UMC-11 (Other Solid Carcinomas)
- Test summary: combination Emax (second highest fraction inhibited in the dose matrix, 72 h); higher = more inhibition; extreme values may be limits of the assay
Measured attribute: combination Emax
Give only the figure.

# Compound, Measured attribute, Measured
rows = [
    ("CC(=O)c1c(C)c2cnc(Nc3ccc(N4CCNCC4)cn3)nc2n(C2CCCC2)c1=O [Palbociclib] + Cn1cnc2c(F)c(Nc3ccc(Br)cc3Cl)c(C(=O)NOCCO)cc21 [Selumetinib] (first compound max 10 µM, 7x7, partner max 10 µM)", "combination Emax", 0.462),
]

**Q:** # lookup: combination Emax of C[C@@H](c1ccc2nccn2c1)n1nnc2ncc(-c3cnn(C)c3)nc21 [Savolitinib] + CC1(C)CCC(CN2CCN(c3ccc(C(=O)NS(=O)(=O)c4ccc(NCC5CCOCC5)c([N+](=O)[O-])c4)c(Oc4cnc5[nH]ccc5c4)c3)CC2)=C(c2ccc(Cl)cc2)C1 [Venetoclax] (first compound max 1 µM, 7x7, partner max 1 µM)
**A:** 0.13

**Q:** # lookup: combination Emax of CN(CCO)CC[C@H](CSc1ccccc1)Nc1ccc(S(=O)(=O)NC(=O)c2ccc(N3CCC([C@@H](O)c4ccccc4-c4ccc(Cl)cc4)CC3)cc2)cc1S(=O)(=O)C(F)(F)F [AZD4320] + C1CN(CCC1(C(=O)N[C@@H](CCO)C2=CC=C(C=C2)Cl)N)C3=NC=NC4=C3C=CN4 [Capivasertib] (first compound max 1 µM, 7x7, partner max 3 µM)
**A:** 0.508

**Q:** # lookup: combination Emax of COc1cc2ncnc(Nc3ccc(F)c(Cl)c3)c2cc1OCCCN1CCOCC1 [Gefitinib] + CC(C)n1c(=O)n(C)c2cnc3cc(F)c(-c4ccc(OCCCN5CCCCC5)nc4)cc3c21 [AZD1390] (first compound max 10 µM, 7x7, partner max 0.3 µM)
**A:** 0.0797
